# measuredTarget: PD-1/PD-L1 (Homo sapiens)
# assayInfo: TR-FRET PD-1/PD-L1 binding inhibition at the molecular level (free proteins)
# testConditions: read-out: FRET assay (IC50), Tag1-PD-L1 and Tag2-PD-1 proteins, twelve concentrations from 200 nM, 2 hours at room temperature
pIC50: −log10 of the molar value.
measurementLabel: pIC50

- Cc1c(NC(=O)c2ccc(CN3CC[C@@H](O)C3)cn2)cccc1-c1cccc(NC(=O)c2cc3n(n2)CCC[C@H]3N2CC[C@@H](O)C2)c1C: > 8.00

----------
# measuredTarget: PD-1/PD-L1 (Homo sapiens)
# assayInfo: TR-FRET PD-1/PD-L1 binding inhibition at the molecular level (free proteins)
# testConditions: Tag1-PD-L1 and Tag2-PD-1 proteins, twelve concentrations from 200 nM, 2 hours at room temperature, read-out: FRET assay (IC50)
measurementLabel: IC50

• O=C(Nc1cccc(-c2cccc(Nc3nc(C(F)F)nc4cc(CN5CC[C@@H](O)C5)cnc34)c2Cl)c1Cl)c1cc2n(n1)CCCC2N1CC[C@@H](C(=O)O)C1 (stereo partly drawn) [Compound 142] = < 0.01 µM
• Cc1c(NC(=O)c2cc3n(n2)CCN(CCO)C3)cccc1-c1cccc(Nc2nc(C(F)F)nc3cc(CN4CC[C@@H](O)C4)cnc23)c1C [Compound 327] = < 0.01 µM
• Cc1c(NC(=O)c2ccc(CN3CC[C@@H](O)C3)cn2)cccc1-c1cccc(NC(=O)c2cc3n(n2)CCCC3N2CC[C@@H](C(=O)O)C2)c1C (stereo partly drawn) [Compound 96] = < 0.01 µM
• Cc1c(NC(=O)c2cc3n(n2)CCC[C@@H]3N2CCC(O)CC2)cccc1-c1cccc(Nc2nc(C(F)F)nc3cccnc23)c1C [Compound 287] = 0.01 to 0.1 µM
• Cc1c(NC(=O)c2ccc(CN3CC[C@@H](O)C3)cn2)cccc1-c1cccc(NC(=O)c2cc3n(n2)CCCC3NC[C@@H]2CCC(=O)N2)c1C (stereo partly drawn) [Compound 93] = < 0.01 µM
• Cc1c(Nc2nccc3cc(CN4CC[C@@H](O)C4)cnc23)cccc1-c1cccc(-c2cc3n(n2)CCCC3NCC(=O)O)c1C (stereo partly drawn) [Compound 179] = < 0.01 µM

----------
Some molecules, each annotated with its measured pIC50.
# measuredTarget: PD-1/PD-L1 (Homo sapiens, UniProt Q9NZQ7)
# Sequence (Q9NZQ7 19-238 limits assumed): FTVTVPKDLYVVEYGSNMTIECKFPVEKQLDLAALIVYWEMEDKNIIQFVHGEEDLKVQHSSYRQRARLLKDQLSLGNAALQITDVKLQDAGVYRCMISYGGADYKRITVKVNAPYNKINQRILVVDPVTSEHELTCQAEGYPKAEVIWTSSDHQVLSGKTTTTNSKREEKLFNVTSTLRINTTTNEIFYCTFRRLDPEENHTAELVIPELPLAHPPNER
# assayInfo: TR-FRET PD-1/PD-L1 binding inhibition at the molecular level (free proteins)
# testConditions: Tag1-PD-L1 and Tag2-PD-1 proteins, twelve concentrations from 200 nM, 2 hours at room temperature, read-out: FRET assay (IC50)
pIC50: −log10 of the molar value.
measurementLabel: pIC50

- O=C(O)CCCNC1CCCn2nc(C(=O)Nc3cccc(-c4cccc(Nc5nccc6cc(CN7CC[C@@H](O)C7)cnc56)c4Cl)c3Cl)cc21 (stereo partly drawn) [Compound 239]: 7.00 to 8.00
- Cc1c(NC(=O)c2cc3n(n2)CCCC3NC[C@@H]2CCC(=O)N2)cccc1-c1cccc(Nc2nccc3cc(CN4CC[C@@H](O)C4)cnc23)c1C (stereo partly drawn) [Compound 15]: > 8.00
- O=C(Nc1cccc(-c2cccc(Nc3nc(C(F)(F)F)nc4cc(CN5CC[C@@H](O)C5)cnc34)c2Cl)c1Cl)c1cc2n(n1)CCC[C@H]2N1CCC(C(=O)O)CC1 [Compound 337]: 7.00 to 8.00
- COc1cc(-c2cccc(-c3cccc(NC(=O)c4cc5n(n4)CCCC5N4CC[C@@H](O)C4)c3Cl)c2Cl)cc(F)c1CNC(C)(C)C(=O)O (stereo partly drawn) [Compound 128]: > 8.00
- Cc1c(NC(=O)c2ccc(CNCCO)cn2)cccc1-c1cccc(NC(=O)c2cc3n(n2)CCCC3N2CCC(C(=O)O)CC2)c1C (stereo not drawn) [Compound 79]: > 8.00
- CC(=O)NCCNC1CCCn2nc(C(=O)Nc3cccc(-c4cccc(Nc5nccc6cc(CN7CC[C@@H](O)C7)cnc56)c4Cl)c3C)cc21 (stereo partly drawn) [Compound 39]: > 8.00
